assayed_target: Ubiquitin carboxyl-terminal hydrolase 30 (Homo sapiens) (UniProt Q70CQ3)
Sequence (Q70CQ3 whole entry, looked up): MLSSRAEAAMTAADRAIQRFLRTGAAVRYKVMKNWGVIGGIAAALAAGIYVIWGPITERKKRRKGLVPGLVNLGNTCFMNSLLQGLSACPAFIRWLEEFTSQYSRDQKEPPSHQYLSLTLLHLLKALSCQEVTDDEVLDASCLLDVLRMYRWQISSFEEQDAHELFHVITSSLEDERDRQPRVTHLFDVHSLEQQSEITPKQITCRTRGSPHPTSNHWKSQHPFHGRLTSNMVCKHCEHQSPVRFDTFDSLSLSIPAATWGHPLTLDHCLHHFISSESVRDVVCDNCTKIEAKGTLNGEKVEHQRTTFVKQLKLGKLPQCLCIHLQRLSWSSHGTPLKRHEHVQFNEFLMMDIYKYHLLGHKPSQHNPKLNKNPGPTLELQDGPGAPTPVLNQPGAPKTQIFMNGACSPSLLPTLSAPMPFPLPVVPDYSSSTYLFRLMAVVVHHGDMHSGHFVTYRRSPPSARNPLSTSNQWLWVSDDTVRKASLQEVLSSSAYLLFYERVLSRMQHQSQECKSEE
experimental_details: inhibitors of human USP30 deubiquitinase (AID 1645860)
measurement_context: purified USP30, Ub-rhodamine cleavage fluorescence; at 25 µM; hits give high values
Among all 47,000 compounds or so, about 2,500 (5.3%) were called active. The entries come from a sample that favours actives as a whole.
measurement_kind: inhibition (%)
One number for each entry, in %.

Please give inhibition, item by item, for the list that follows.
1. Cc1cccc(-c2cccc(C3CCCN(C(=O)c4cnccn4)C3)n2)c1 (configuration not stated)
2. O=C(CCCOc1ccc(F)cc1F)N1CCC(c2[nH]nc3nccnc23)CC1

// result
1. -38
2. -12.7

Look at each compound and report its inhibition.
1. O=C(O)CCNC(=O)/C(=C/c1ccc(Cl)cc1)NC(=O)c1ccco1
2. O=C(C1CCCCC1)N1CCCC(c2ccnc3ncnn23)C1 (configuration not stated)
3. COc1cc2[nH]c(=O)n(Cc3ccc(C(=O)N4CCN(c5ccccn5)CC4)cc3)c(=O)c2cc1OC
4. CC(=O)c1cccc(NC(=O)c2cccc(-c3nc(-c4ccccc4)no3)c2)c1

// result
1: -2.38; 2: 21.7; 3: 9.66; 4: -9.31

Per the records, this compound ( "COC(=O)c1cc(NC(=O)c2cccnc2)ccc1N1CCOCC1" ) has inhibition equal to -17.6

###

assayed_target: Ubiquitin carboxyl-terminal hydrolase 30 (Homo sapiens) (UniProt Q70CQ3)
experimental_details: inhibitors of human USP30 deubiquitinase (AID 1645860)
measurement_context: purified USP30, Ub-rhodamine cleavage fluorescence; at 25 µM; hits give high values
Hit rate of the full screen: of about 47,000 compounds, about 2,500 (5.3%) were called active. The entries come from a sample that favours actives as a whole.
measurement_kind: inhibition (%)
Give bare numbers, in %.

Hi! Can you tell me inhibition for each of these compounds?
1. COc1ccc(NS(=O)(=O)c2cc(NC(=O)CC(=O)c3ccc([N+](=O)[O-])cc3)ccc2C)cc1
2. O=C(c1ccc(N2CCCC2)nn1)N1CCN(c2ccccn2)CC1
3. COc1cccc(C2C(C(=O)Nc3ccccc3C)=C(C)Nc3ncnn32)c1OCc1ccccc1 (centres undefined)
4. Cc1ccc(NC(=O)CCC(=O)N(c2ccccc2)c2ccccc2)cc1Cl

// result
29.7
3.65
-8.1
17.2

###

assayed_target: Ubiquitin carboxyl-terminal hydrolase 30 (Homo sapiens) (UniProt Q70CQ3)
experimental_details: inhibitors of human USP30 deubiquitinase (AID 1645860)
measurement_context: purified USP30, Ub-rhodamine cleavage fluorescence; at 25 µM; hits give high values
The whole screen tested about 47,000 compounds, of which about 2,500 (5.3%) were called active. This excerpt belongs to a sample that is enriched for actives.
measurement_kind: inhibition (%)
One number for each entry, in %.

> print(dat)
                                   compound  result.unit  endpoint.value
1  Cc1ccc(Cc2nnc(C(=O)NC(C)c3ccccc3)o2)cc1 (stereo not drawn)            %          -0.465

Required: inhibition, one value per compound below.
1. COc1ccc(NC(=O)CS(=O)(=O)c2cn(CC(=O)N3CCCC3)c3ccccc23)cc1
2. Cc1cccc(S(=O)(=O)NCCc2cn(C)c3ncccc23)c1
3. O=C(CSc1nnc(-c2ccc3c(c2)OCO3)n1-c1ccccc1)OCC(=O)c1ccccc1
4. CC(C)[C@H](NC(=O)N1CCn2c1nc1ccccc12)C(=O)NC1CC1
5. Cn1ccc(-c2cc(C(=O)NC3CC3)c3ccccn23)n1
6. CC(C)c1ccc(C(=O)N2CCN(c3cnn4cnnc4c3)CC2)cc1
7. CCOc1ncccc1C(=O)OCC(=O)c1ccc2c(c1)-c1ccccc1C2

// result
1: 30.4; 2: -9.95; 3: 69.9; 4: 16; 5: -423; 6: -7.33; 7: -153

Would you be so kind as to report inhibition for each listed record?
1. O=C(CSc1ccc2nnc(-c3ccccc3)n2n1)N1CCCc2ccccc21
2. COc1ccc(-n2c(SCC(=O)OC(C)C)nnc2-c2ccccn2)cc1
3. Cc1c(Cl)cccc1NC(=O)CCn1cnc2ccccc2c1=O
4. CC1CCCN(C(=O)c2cc(S(=O)(=O)N3CCCCC3)ccc2Cl)C1 (stereo not drawn)
5. COc1ccc(-c2ocnc2C(=O)NCc2ccc(OC)c(OC)c2)cc1
6. O=C(Nc1cc(-c2ccccc2)nn1C1CCS(=O)(=O)C1)c1ccccc1F (stereo not drawn)

// result
1. 51.5
2. 16.8
3. 74
4. 8.5
5. -6.37
6. -4.62

Count: 4. Required value per item: inhibition.
1. O=C(CN(Cc1ccccc1Cl)S(=O)(=O)c1ccccc1F)NC(c1ccccc1)c1ccccc1
2. CC(C)NC(=O)CN1C(=O)CC(C)Sc2ccc(S(=O)(=O)N3CCCCC3)cc21 (stereo not drawn)
3. O=C(Nc1c(C(=O)N2CCOCC2)oc2ccccc12)c1ccccc1F
4. CC(C)(C)n1nc(C2CC2)c(Br)c1NC(=O)c1ccccc1F

// result
[33.4, 86.3, 10.2, 35.5]
